Listed here: items and their measured IC50.
molecular target: Histone deacetylase 1 (Homo sapiens, UniProt Q13547); assay: Inhibition of full length recombinant human C-terminal FLAG-tagged HDAC1 expressed in sf9 cells preincubated for 5 mins followed by biotinylated H3K9-Ac substrate addition and measured after 60 mins by HTRF assay
Sequence (Q13547 whole entry): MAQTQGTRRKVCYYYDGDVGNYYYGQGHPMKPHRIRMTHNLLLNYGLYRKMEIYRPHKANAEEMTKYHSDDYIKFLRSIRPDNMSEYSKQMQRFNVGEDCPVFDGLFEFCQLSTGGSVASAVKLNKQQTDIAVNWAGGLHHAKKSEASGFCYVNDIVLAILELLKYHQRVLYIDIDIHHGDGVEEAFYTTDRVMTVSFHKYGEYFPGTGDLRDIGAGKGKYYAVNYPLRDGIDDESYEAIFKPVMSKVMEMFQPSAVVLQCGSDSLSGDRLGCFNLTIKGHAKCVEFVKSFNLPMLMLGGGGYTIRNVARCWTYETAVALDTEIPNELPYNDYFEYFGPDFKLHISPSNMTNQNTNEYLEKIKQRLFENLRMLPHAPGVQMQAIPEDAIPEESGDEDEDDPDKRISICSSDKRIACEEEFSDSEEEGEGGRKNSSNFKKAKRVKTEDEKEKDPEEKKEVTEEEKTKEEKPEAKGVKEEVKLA
The reply should contain only the number, in nM.

Incoming: For the compound shown here, CC1(C)CCC(CN2CCN(c3ccc(C(=O)NS(=O)(=O)c4ccc(NCCCCCCC(=O)NO)c([N+](=O)[O-])c4)c(Oc4cnc5[nH]ccc5c4)c3)CC2)=C(c2ccc(Cl)cc2)C1 , give the reported IC50.
Outgoing: 665

New cases:
Incoming: // query IC50 value for entry CC1(C)CCC(CN2CCN(c3ccc(C(=O)NS(=O)(=O)c4ccc(NCCCCCC(=O)NO)c([N+](=O)[O-])c4)c(Oc4cnc5[nH]ccc5c4)c3)CC2)=C(c2ccc(Cl)cc2)C1
Outgoing: 847

Incoming: Which value of IC50 has been reported for CC1(C)CCC(CN2CCN(c3ccc(C(=O)NS(=O)(=O)c4ccc(NCCCCCCCC(=O)NO)c([N+](=O)[O-])c4)c(Oc4cnc5[nH]ccc5c4)c3)CC2)=C(c2ccc(Cl)cc2)C1 in the records?
Outgoing: 281
